Provenance of the data: the supplement of paper PMC10567573

Please provide measured protein stability index for the entries that follow.
B1: ESR2 (parent)
chain: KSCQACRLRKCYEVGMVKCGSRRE

Variants of: B1
Test Details: protein stability index of a GFP-peptide fusion (GPS, HEK-293T) (PSI 1-6); higher = more stable;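 further: lentivirally expressed fusions sorted by FACS into six bins by GFP to DsRed ratio, PSI derived from sequencing read proportions per bin multiplied by bin number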
Measurement Context: c terminus: a fixed tail appended
One number for each entry.

Mutant Id	Endpoint Value
Q4G	1.58
A5I	2.34
R7N	1.77

Hello, I would appreciate it if you could give protein stability index for each entry below.
1. C19K
2. Q4V
3. Y12N
4. M16A
5. K10M

1: 1.76; 2: 2.04; 3: 2.43; 4: 1.76; 5: 1.48
